# Tested on: HepG2
# ASSAY PROCEDURE: cytotoxicity call (relative viability < 0.9)
# RUN PARAMETERS: 10 µM
Among all 39,000 compounds or so, about 3,300 (8.5%) were called active. This excerpt belongs to a sample that is enriched for actives.

[
  {
    "COMPOUND SMILES": "C[C@@H]1CCCCO[C@H](CN(C)C(=O)Nc2cccc3ccccc23)[C@H](C)CN([C@H](C)CO)C(=O)c2cc(NC(=O)Cc3ccccc3)ccc2O1",
    "cytotoxicity call": "active"
  },
  {
    "COMPOUND SMILES": "C[C@@H]1CN([C@@H](C)CO)C(=O)c2cc(NC(=O)Cc3ccccc3)ccc2O[C@@H](C)CCCCO[C@@H]1CN(C)C(=O)Nc1cccc2ccccc12",
    "cytotoxicity call": "active"
  },
  {
    "COMPOUND SMILES": "C[C@@H]1CCCCO[C@H](CN(C)C(=O)Nc2cccc3ccccc23)[C@@H](C)CN([C@@H](C)CO)C(=O)c2cc(NC(=O)Cc3ccccc3)ccc2O1",
    "cytotoxicity call": "inactive"
  },
  {
    "COMPOUND SMILES": "CC(C)[C@H]1CC[C@@H](C)C[C@@H]1NC(=O)c1cccc2ccccc12",
    "cytotoxicity call": "inactive"
  },
  {
    "COMPOUND SMILES": "CC(=O)N[C@H](Cc1ccc2ccccc2c1)C(=O)N[C@H](Cc1ccc(Cl)cc1)C(=O)N[C@H](Cc1cccnc1)C(=O)N[C@@H](CO)C(=O)N[C@@H](Cc1ccc(NC(=O)[C@@H]2CC(=O)NC(=O)N2)cc1)C(=O)N[C@H](Cc1ccc(NC(N)=O)cc1)C(=O)N[C@@H](CC(C)C)C(=O)N[C@@H](CCCCNC(C)C)C(=O)N1CCC[C@H]1C(=O)N[C@H](C)C(N)=O",
    "cytotoxicity call": "inactive"
  },
  {
    "COMPOUND SMILES": "C[C@H](CO)N1C[C@H](C)[C@@H](CN(C)C(=O)Nc2cccc3ccccc23)OCCCC[C@H](C)Oc2ccc(NC(=O)Cc3ccccc3)cc2C1=O",
    "cytotoxicity call": "inactive"
  },
  {
    "COMPOUND SMILES": "COc1ccc2c(c1)n(CCN)c(=O)n2C(=O)[C@@H]1C[C@H](C)CC[C@H]1C(C)C",
    "cytotoxicity call": "active"
  },
  {
    "COMPOUND SMILES": "C[C@H]1CCCCO[C@@H](CN(C)C(=O)Nc2cccc3ccccc23)[C@@H](C)CN([C@@H](C)CO)C(=O)c2cc(NC(=O)Cc3ccccc3)ccc2O1",
    "cytotoxicity call": "active"
  },
  {
    "COMPOUND SMILES": "C[C@@H]1CCCCO[C@@H](CN(C)C(=O)Nc2cccc3ccccc23)[C@H](C)CN([C@H](C)CO)C(=O)c2cc(NC(=O)Cc3ccccc3)ccc2O1",
    "cytotoxicity call": "inactive"
  },
  {
    "COMPOUND SMILES": "Cc1noc(C)c1NC(=O)Nc1ccc2c(c1)CC(=O)N([C@H](C)CO)C[C@H](C)[C@@H](CN(C)S(=O)(=O)c1cccs1)O2",
    "cytotoxicity call": "inactive"
  },
  {
    "COMPOUND SMILES": "C[C@@H]1CCCCO[C@@H](CN(C)C(=O)Nc2cccc3ccccc23)[C@H](C)CN([C@@H](C)CO)C(=O)c2cc(NC(=O)Cc3ccccc3)ccc2O1",
    "cytotoxicity call": "inactive"
  },
  {
    "COMPOUND SMILES": "C[C@@H]1CCCCO[C@@H](CN(C)C(=O)Nc2cccc3ccccc23)[C@@H](C)CN([C@@H](C)CO)C(=O)c2cc(NC(=O)Cc3ccccc3)ccc2O1",
    "cytotoxicity call": "inactive"
  }
]
